Recorded values, source PubChem BioAssay.

Molecular target: Pantothenate synthetase (Mycobacterium tuberculosis (strain ATCC 25618 / H37Rv)) (UniProt P9WIL5)
Sequence (P9WIL5 whole entry, looked up): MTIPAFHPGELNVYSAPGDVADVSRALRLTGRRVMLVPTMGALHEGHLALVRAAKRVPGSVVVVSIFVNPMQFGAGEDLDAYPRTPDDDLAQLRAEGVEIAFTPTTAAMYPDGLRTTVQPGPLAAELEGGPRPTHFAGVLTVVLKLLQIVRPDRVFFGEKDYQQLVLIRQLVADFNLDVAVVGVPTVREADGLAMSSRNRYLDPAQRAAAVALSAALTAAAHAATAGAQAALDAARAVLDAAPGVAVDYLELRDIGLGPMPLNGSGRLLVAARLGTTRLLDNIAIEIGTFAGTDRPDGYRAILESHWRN
Experiment: Coupled enzyme confirmation of inhibitors against recombinant Mtb PanC (AID 375);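 further: 0% = full reaction with vehicle and 100% = no enzyme background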
Details: coupled enzyme assay; at 10 µM, hits give high values
Each item that follows carries a reported inhibition.
Form entry: value (%) — number only.

The recorded inhibition for CCOC(=O)C(C)Sc1nnc(Cc2cc(=O)[nH]c(=O)[nH]2)n1-c1ccc(Cl)cc1 (centres undefined) is 0

The recorded inhibition for CC1CCc2cc(F)cc3c(O)c(C(=O)Nc4cnccn4)c(=O)n1c23 (centres undefined) is 0

Moving on to the next compound.
The recorded inhibition for O=C(Nc1ccccc1)c1ccc(NCC2CCCO2)c(S(=O)(=O)N2CCOCC2)c1 (centres undefined) is 0

====

Target: Pantothenate synthetase (Mycobacterium tuberculosis (strain ATCC 25618 / H37Rv))
Assay: Coupled enzyme confirmation of inhibitors against recombinant Mtb PanC (AID 375);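 further: 0% = full reaction with vehicle and 100% = no enzyme background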
Conditions: coupled enzyme assay; at 10 µM, hits give high values
observable: inhibition (%)
Form entry: value (%) — number only.

The recorded inhibition for CC1(C)CC(=O)C2=C(C1)NC(=O)CC2C(=O)NCc1ccc(F)cc1 (centres undefined) is 0

The recorded inhibition for Cc1cc(C)nc(NC2=NCC(=O)N2c2ccc(Cl)cc2)n1 is 0

The recorded inhibition for COc1ccc(C(=O)Cn2nnc(-c3cccs3)n2)cc1 is 0

Further cases:
The recorded inhibition for CCc1c(C(=O)Nc2ncn(Cc3cccc(C)c3)n2)csc1C is 4

====

Target: Pantothenate synthetase (Mycobacterium tuberculosis (strain ATCC 25618 / H37Rv))
Experiment: Coupled enzyme confirmation of inhibitors against recombinant Mtb PanC (AID 375);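 further: 0% = full reaction with vehicle and 100% = no enzyme background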
Conditions: coupled enzyme assay; at 10 µM, hits give high values
observable: inhibition (%)
Form entry: value (%) — number only.

Here's what some known entries look like.
The recorded inhibition for Cc1ccc(-c2cc(C(=O)O)n[nH]2)o1 is 0

The recorded inhibition for CC1CCc2nn(CC(=O)Nc3ccc(F)cc3F)cc2C1 (stereo unspecified) is 5

The recorded inhibition for COc1ccccc1CNC(=O)Nc1cccs1 is 0

The recorded inhibition for CC1=C(C(N)=O)C(c2ccncc2)n2nc(-c3ccccc3Cl)nc2N1 (stereo unspecified) is 0

The recorded inhibition for O=C(CCSc1nccn1Cc1ccccc1)N1CCOCC1 is 0

The recorded inhibition for O=C1OCc2cc(NC(=O)C3CCCO3)ccc21 (stereo unspecified) is 5

The recorded inhibition for O=C1CC(c2cccnc2)c2cc3c(cc2N1)OCO3 (stereo unspecified) is 0

The recorded inhibition for Cc1cc(=O)n2nc(N3CCC(C(=O)N4CCN(Cc5ccccc5)CC4)CC3)sc2n1 is 2

Further cases:
The recorded inhibition for COc1ccc(NS(=O)(=O)c2ccc(N)cc2)nn1 is 1

The recorded inhibition for NC(=O)c1ccsc1NC(=O)COC(=O)Cc1ccsc1 is 3

The recorded inhibition for CSc1ccc(-c2nc(CSCC(=O)N3CCOCC3)c(C)o2)cc1 is 0

The recorded inhibition for Cc1ccc(C)c2[nH]c(=O)c(CCNC(=O)c3ccc(S(=O)(=O)N(C)C)cc3)cc12 is 0

The recorded inhibition for O=C(Nc1ccc(Cl)cc1)N1CCSCC1 is 1

====

Biological target: Pantothenate synthetase (Mycobacterium tuberculosis (strain ATCC 25618 / H37Rv)) (UniProt P9WIL5)
Test: Coupled enzyme confirmation of inhibitors against recombinant Mtb PanC (AID 375);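 further: 0% = full reaction with vehicle and 100% = no enzyme background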
Settings: coupled enzyme assay; at 10 µM, hits give high values
Each item that follows carries a reported inhibition.
Form entry: value (%) — number only.

The recorded inhibition for O=C(CSc1nc2ccccc2s1)N1CCN(C(=O)c2ccco2)CC1 is 0

The recorded inhibition for Cc1cc(C)c2oc(=O)cc(CN3CCOCC3)c2c1 is 0

The recorded inhibition for COc1cc(/C=N/n2cnnc2)ccc1OC(=O)N(C)C is 6

The recorded inhibition for CCn1c(C(=O)OC)cc2c1ccn2-c1ccc(F)cc1 is 0

The recorded inhibition for COc1ccc(S(=O)(=O)NCCSCc2ccco2)cc1Cl is 0

The recorded inhibition for CC(=O)Nc1ccc(S(=O)(=O)Nc2nc3c(s2)CCCC3)cc1 is 2

Further cases:
The recorded inhibition for O=C1c2ccccc2C(=O)N1OCc1ccccc1 is 0

The recorded inhibition for O=C(CN1CCN(c2ncccn2)CC1)Nc1ccccc1-n1cccc1 is 0

The recorded inhibition for NC(=O)c1cccc(S(=O)(=O)N2CCCCC2)c1 is 0

The recorded inhibition for CCOC(=O)CC12CN3CN(C1)CC(CC(=O)OCC)(C3)C2=O is 1

The recorded inhibition for CCOc1cc(C2CC(=O)N3CN(C4CCCCC4)CSC3=C2C#N)ccc1O (centres undefined) is 0

The recorded inhibition for O=S(=O)(Nc1ccc(Cc2ccncc2)cc1)N1CCCC1 is 0

====

Molecular target: Pantothenate synthetase (Mycobacterium tuberculosis (strain ATCC 25618 / H37Rv)) (UniProt P9WIL5)
Experiment: Coupled enzyme confirmation of inhibitors against recombinant Mtb PanC (AID 375);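 further: 0% = full reaction with vehicle and 100% = no enzyme background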
Details: coupled enzyme assay; at 10 µM, hits give high values
Cut-off 1% on inhibition, inclusive. At or above means 1 (yes); below means 0 (no).

Use the examples below as a reference point.
I'd appreciate it if you could say whether CCOC(=O)c1cnc2c(OC)cccc2c1N1CCN(c2ccc(OC)cc2)CC1 has inhibition at least equal to 1%. 0 (no)

I'd appreciate it if you could say whether CCn1c(CNc2ccc(OC)cc2)nnc1SCC(=O)c1ccc(OC)cc1 has inhibition at least equal to 1%. 0 (no)

Further cases:
I'd appreciate it if you could say whether CCOC(=O)c1[nH]c(C)c(C(=O)N2CCN(C(=O)c3ccco3)CC2)c1C has inhibition at least equal to 1%. 0 (no)

====

Target: Pantothenate synthetase (Mycobacterium tuberculosis (strain ATCC 25618 / H37Rv))
Test: Coupled enzyme confirmation of inhibitors against recombinant Mtb PanC (AID 375);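 further: 0% = full reaction with vehicle and 100% = no enzyme background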
Details: coupled enzyme assay; at 10 µM, hits give high values
Each item that follows carries a reported inhibition.
Form entry: value (%) — number only.

The recorded inhibition for CCCOc1ccc(N2CC(C(=O)Nc3ccc4c(c3)OCO4)CC2=O)cc1 (stereo not given) is 6

====

Each item that follows carries a reported inhibition.
Target: Pantothenate synthetase (Mycobacterium tuberculosis (strain ATCC 25618 / H37Rv)) (UniProt P9WIL5)
Experiment: Coupled enzyme confirmation of inhibitors against recombinant Mtb PanC (AID 375);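 further: 0% = full reaction with vehicle and 100% = no enzyme background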
Details: coupled enzyme assay; at 10 µM, hits give high values
Form entry: value (%) — number only.

Here's what some known entries look like.
The recorded inhibition for Cc1cccc(-n2ccnc2SCC(=O)Nc2cc(C)on2)c1 is 1

The recorded inhibition for COc1ccc(C(=O)OC(COc2ccccc2)Cn2ccnc2)cc1 (stereo not given) is 0

The recorded inhibition for Cc1ccc(C)c(S(=O)(=O)C(C#N)c2nc3ccccc3nc2N2CC(C)OC(C)C2)c1 (stereo not given) is 0

Further cases:
The recorded inhibition for Cc1ccc(NS(=O)(=O)c2cn(C)cn2)cc1 is 5

The recorded inhibition for CCOC(=O)c1c(NC(=O)COC(=O)c2c(C)noc2C)sc2c1CCC2 is 1

The recorded inhibition for CCOC(=O)c1sc2nc(C)cc(C)c2c1N is 0

The recorded inhibition for Cc1nc2sc(C(c3ccccc3)N3CCN(c4ccccc4F)CC3)c(O)n2n1 (stereo not given) is 0

====

Assay: RAM pathway blockade in budding yeast – dse1pr::URA3 reporter, 5-FOA selection, pilot screen (AID 869);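 further: 0% = DMSO wells with no growth and 100% = 10 µM 1-NA-PP1 with full growth; RAM network block rescues cells from 5-FOA so hits raise OD615 growth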
Conditions: S. cerevisiae dse1pr::URA3 5-FOA growth, OD615, 2 d, at 10 µM, hits give high values
Each item that follows carries a reported inhibition.
Form entry: value (%) — number only.

Here's what some known entries look like.
The recorded inhibition for CCc1ccc(OCCCN=C(C)c2c(O)n(C)c(=O)n(C)c2=O)cc1 is 0.12

The recorded inhibition for CCOC(=O)c1c(C)n(Cc2ccco2)c2ccc(OC)cc12 is 0.59

The recorded inhibition for CCOc1ccccc1C1SCC(=O)Nc2c1c(=O)[nH]n2C(CC)CC (centres undefined) is 1.07

Further cases:
The recorded inhibition for Cn1c(O)c(C=Nc2ccc(Cl)cc2)c(=O)n(C)c1=O is 0.685

====

Assay: MRP1 drug-resistance reversers in H69AR cells – cell-based, doxorubicin co-treatment, pilot screen (AID 601)
Conditions: H69AR cells + 2 uM doxorubicin, CellTiter-Glo, 72 h; at 10 µM; hits give high values
Active and inactive are the calls of the source.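 Rule for the calls: active = viability loss from added drug above about 55%, and viability with drug at most 40%, in both replicates (limit read from the data, passing the limit was not always enough); inconclusive = both conditions met in only one replicate; inactive = neither replicate meets both conditions.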
Each item that follows carries a reported differential viability (reversal).

The recorded differential viability (reversal) for N#Cc1ccccc1Cn1cc(C(=O)C2CC2)c2ccccc21 is -32.4% (inactive)

The recorded differential viability (reversal) for CCN(CC)CCN=Cc1c(O)n(CCC2=CCCCC2)c(=O)[nH]c1=O is -11.4% (inactive)

The recorded differential viability (reversal) for CC(C)N(CCC(C(N)=O)(c1ccccc1)c1ccccn1)C(C)C (centres undefined) is -15.8% (inactive)

The recorded differential viability (reversal) for CN1CCN(c2nc3ccccc3c(=O)n2-c2ccccc2)CC1 is -3.29% (inactive)

The recorded differential viability (reversal) for CCN1CCN(Cc2cc(Br)cc(OC)c2O)CC1 is -2.88% (inactive)

The recorded differential viability (reversal) for CCn1nc(-c2ccccc2)nc2c(=O)n(C)c(=O)nc1-2 is 0.5% (inactive)

The recorded differential viability (reversal) for COc1ccc(C2SCC(=O)Nc3c2c(=O)[nH]n3C2CCCCCC2)cc1OC (centres undefined) is 7.54% (inactive)

The recorded differential viability (reversal) for CC1(C)CC(=O)C=C(NCCN2CCN(C(=O)Cc3ccc(Cl)cc3)CC2)C1 is -3.5% (inactive)

Further cases:
The recorded differential viability (reversal) for Cc1cc(OCC(=O)O)c2c3c(c(=O)oc2c1)CCCC3 is -3.02% (inactive)

The recorded differential viability (reversal) for Cc1ccnc(-n2c(-c3ccco3)nc3ccccc3c2=O)c1 is 10.2% (inactive)
